exon inclusion enrichment index listing for selected variants.
B1: mRNA-splicing (parent)
chain: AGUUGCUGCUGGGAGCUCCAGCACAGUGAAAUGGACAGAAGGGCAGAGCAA

- Variants of: B1
- experiment.summary: exon inclusion enrichment index; higher = more inclusion; WT1 exon 5 minigene, HEK293
Write the value as a bare number.

Known results for variants:
{"columns": ["alteration", "result.number"],
 "data": [
  ["C6U U7A G8U C9A", 0.17],
  ["C6A U7A C9A U10A G42C G43U", 1.96],
  ["C6A U7C C9A U10C A23C C24A", 3.49],
  ["G5C C6U G8C C9U U10C C18U C19A", 0.179],
  ["U3G G5C C6A U7C G8A U10A", 0.043]
]}

For this variant ( G5A U7C G8A U10C A31U U32A ), measured exon inclusion enrichment index is 0.229

For this variant ( G5U G8U C9U U32C G33A ), measured exon inclusion enrichment index is 0.0483

For this variant ( G5A U7C G8A U10C G34C A35U ), measured exon inclusion enrichment index is 0.506
